Test system: rabbit aortic rings
ASSAY_COMMENT: Assay B: In Vitro Vascular Smooth Muscle-Response for AII (antagonist activity in rabbit aortic rings)
Assay type: cell-based, rabbit (male New Zealand white)
STUDY_CONDITIONS: Oryctolagus cuniculus, rabbit aorta rings; antagonist at 10^-5 M; only printed value, or first of two printed values; read-out: PA2 (converted)
RECORDED_ENDPOINT: Kb (nM)

>>> obs_value("CCCCc1nc(CCCC)n(Cc2ccc(-c3ccccc3C(=O)O)cc2)n1 [Example 2]")
33.1
>>> obs_value("CCCCc1nc(CCC(C)C)nn1Cc1ccc(-c2ccccc2-c2nnn[nH]2)cc1 [Example 17]")
2.29
>>> obs_value("CCCCc1nc(Cl)nn1Cc1ccc(-c2ccccc2-c2nnn[nH]2)cc1 [Example 7]")
9.33
>>> obs_value("CCCCc1nc(CCCC)n(Cc2ccc(-c3ccccc3C(=O)NNS(=O)(=O)C(F)(F)F)cc2)n1 [Example 5]")
63.1
>>> obs_value("CCCCc1nc(Cl)nn1Cc1ccc(-c2ccccc2C(=O)O)cc1 [Example 6]")
204
>>> obs_value("CCCCc1nc(C(F)(F)CCC)n(Cc2ccc(-c3ccccc3-c3nnn[nH]3)cc2)n1 [Example 11]")
355
>>> obs_value("CCCCc1nc(CCC)nn1Cc1ccc(-c2ccccc2-c2nnn[nH]2)cc1 [Example 14]")
1.45
>>> obs_value("CCCCc1nc(CCC(C)C)n(Cc2ccc(-c3ccccc3-c3nnn[nH]3)cc2)n1 [Example 16]")
1.12
>>> obs_value("CCCCc1nc(CCC)n(Cc2ccc(-c3ccccc3-c3nnn[nH]3)cc2)n1 [Example 15]")
4.9

====

# key: entry, value: Kb
System: rabbit aortic rings
ASSAY_COMMENT: Assay B: In Vitro Vascular Smooth Muscle-Response for AII (antagonist activity in rabbit aortic rings)
Type: cell-based, rabbit (male New Zealand white)
STUDY_CONDITIONS: Oryctolagus cuniculus, rabbit aorta rings; antagonist at 10^-5 M; only printed value, or first of two printed values; read-out: PA2 (converted)
RECORDED_ENDPOINT: Kb

>>> obs_value("CCCCc1nc(C(F)(F)CCC)nn1Cc1ccc(-c2ccccc2-c2nnn[nH]2)cc1")
"6.46 nM"
>>> obs_value("CCCCc1nc(CCCC)n(Cc2ccc(-c3ccccc3-c3nnn[nH]3)cc2)n1")
"2 nM"
>>> obs_value("CCCCc1nc(Cl)n(Cc2ccc(-c3ccccc3-c3nnn[nH]3)cc2)n1")
"40.7 nM"
>>> obs_value("CCCc1nc(CCC)n(Cc2ccc(-c3ccccc3-c3nnn[nH]3)cc2)n1")
"2.19 nM"
>>> obs_value("CCCCCc1nc(CCCCC)n(Cc2ccc(-c3ccccc3-c3nnn[nH]3)cc2)n1")
"2 nM"

====

TGT: smooth muscle angiotensin II receptor
ASSAY_COMMENT: Assay A: Angiotensin II Binding Activity (displacement of 125I-AII, rat uterine membrane preparation)
STUDY_CONDITIONS: 50% displacement of specifically bound 125I-AII; rat uterine membranes; 25° C., 60 min
pIC50: −log10 of the molar value.
Quick list: pIC50 per entry.
RECORDED_ENDPOINT: pIC50

>>> obs_value("CCCCc1nc(CCCC)n(Cc2ccc(-c3ccccc3-c3nnn[nH]3)cc2)n1")
8.27
>>> obs_value("CCCCc1nc(CCC)nn1Cc1ccc(-c2ccccc2-c2nnn[nH]2)cc1")
8.14
>>> obs_value("CCCCc1nc(CCC(C)C)nn1Cc1ccc(-c2ccccc2-c2nnn[nH]2)cc1")
8.40
>>> obs_value("CCCCc1nc(Cl)nn1Cc1ccc(-c2ccccc2-c2nnn[nH]2)cc1")
7.08
